# System: HEK-293T
# ASSAY_NOTES: Multiplex assay against HEK293T
# Assay type: toxicity, cell-based
# REPORTED_CONDITIONS: human, 24 h, 1 µM, compound concentration 1 uM
MEASURED_ENDPOINT: Population Fragmented Nuclei (%)
Param answer (str): number followed by unit.

I am curious: what Population Fragmented Nuclei (%) value has been reported for CSc1ccccc1N1CCN(CCCCCC(=O)NC2CCCc3ccccc32)CC1.Cl (centres undefined) ?
8%

I am curious: what Population Fragmented Nuclei (%) value has been reported for CNC[C@H](O)c1ccc(O)c(O)c1 [EPINEPHRINE] ?
9%

I am curious: what Population Fragmented Nuclei (%) value has been reported for COC[C@@H](c1ccc(C(F)(F)F)cc1)N1CCN(C2(C)CCN(C(=O)c3c(C)ncnc3C)CC2)C[C@@H]1C.O=C(O)/C=C\C(=O)O [VICRIVIROC MALEATE] ?
9%

New cases:
I am curious: what Population Fragmented Nuclei (%) value has been reported for CC(C)(C)c1ccc(S(=O)(=O)Nc2ccc(Cl)cc2C(=O)c2cc[n+]([O-])cc2)cc1 [VERCIRNON] ?
8%

---

# Test system: U2OS
# ASSAY_NOTES: Multiplex assay against U2OS
# Type: toxicity, cell-based
# REPORTED_CONDITIONS: human, 12 h, 10 µM, compound concentration 10 uM
Reported Population Hoechst High Intensity Objects (%) values follow for various compounds
State the answer as a number, implicitly in %.

Sample records with Population Hoechst High Intensity Objects (%):
I am curious: what Population Hoechst High Intensity Objects (%) value has been reported for N#Cc1cc(F)cc(-c2nc(-c3ccc(F)cn3)no2)c1 ?
1

I am curious: what Population Hoechst High Intensity Objects (%) value has been reported for CN1CCC(C(=O)c2cccc(NC(=O)c3c(F)cc(F)cc3F)n2)CC1 ?
1

I am curious: what Population Hoechst High Intensity Objects (%) value has been reported for COc1ccc2c(c1)C(C(=O)N(Cc1ccc(N(C)C)cc1)c1ccc(C(C)C)cc1)CCC2.Cl (centres undefined) ?
4

I am curious: what Population Hoechst High Intensity Objects (%) value has been reported for CCN1CCN(Cc2ccc(Nc3ncc(F)c(-c4cc(F)c5nc(C)n(C(C)C)c5c4)n3)nc2)CC1.CS(=O)(=O)O ?
0

New cases:
I am curious: what Population Hoechst High Intensity Objects (%) value has been reported for CC(C)Oc1ccc(F)c(-c2cnc(N)c(C(=O)Nc3cnccc3N3CCC[C@@H](C(=O)O)C3)n2)c1 ?
0

I am curious: what Population Hoechst High Intensity Objects (%) value has been reported for c1ccc2nc(N3CCNCC3)ccc2c1 ?
0

I am curious: what Population Hoechst High Intensity Objects (%) value has been reported for Cl.Cl.N#Cc1ccc(O[C@@H]2c3ccccc3C[C@H]2N2CCC[C@@H](N)C2)c(Cl)c1 ?
0

I am curious: what Population Hoechst High Intensity Objects (%) value has been reported for C=C(C)[C@H]1CN[C@H](C(=O)O)[C@H]1CC(=O)O ?
0

I am curious: what Population Hoechst High Intensity Objects (%) value has been reported for CC(C)c1ccc(/C=N/NC(=O)c2ccc(O)cc2)cc1 ?
0

---

# Test system: U2OS
# ASSAY_NOTES: Multiplex assay against U2OS
# Format: toxicity, cell-based
# REPORTED_CONDITIONS: human, 12 h, 10 µM, compound concentration 10 uM
MEASURED_ENDPOINT: Population Membrane Permeable-Phenotype (%)
State the answer as a number, implicitly in %.

Sample records with Population Membrane Permeable-Phenotype (%):
I am curious: what Population Membrane Permeable-Phenotype (%) value has been reported for CSCC[C@H](NC=O)C(=O)N[C@@H](CC(C)C)C(=O)N[C@@H](Cc1ccccc1)C(=O)O ?
4

I am curious: what Population Membrane Permeable-Phenotype (%) value has been reported for CC(F)(F)CN1CCOc2c(nn(-c3ccccc3Cl)c2-c2ccc(Cl)cc2)C1=O ?
10

I am curious: what Population Membrane Permeable-Phenotype (%) value has been reported for CSc1nc(NC2CCCC2)c([N+](=O)[O-])c(NC2CCCC2)n1 ?
9

I am curious: what Population Membrane Permeable-Phenotype (%) value has been reported for O=C(O)Cc1ccccc1Nc1c(Cl)cccc1Cl ?
8

# evaluate next
I am curious: what Population Membrane Permeable-Phenotype (%) value has been reported for CC(C)c1noc(N2CCC(COc3ccc(-c4ccc(S(C)(=O)=O)cc4)nc3)CC2)n1 ?
10

---

Reported Population Mitotic Cells (%) values follow for various compounds
# Test system: HEK-293T
# ASSAY_NOTES: Multiplex assay against HEK293T
# Type: toxicity, cell-based
# REPORTED_CONDITIONS: human, 12 h, 1 µM, compound concentration 1 uM

I am curious: what Population Mitotic Cells (%) value has been reported for CSc1ccccc1N1CCN(CCCCCC(=O)NC2CCCc3ccccc32)CC1.Cl (centres undefined) ?
54%

New cases:
I am curious: what Population Mitotic Cells (%) value has been reported for CCn1c(-c2nc3cc(C(=O)N4CCCC(N)C4)ccc3n2C)cc2ccccc21.Cl (centres undefined) ?
87.4% [middle of 4 runs]

I am curious: what Population Mitotic Cells (%) value has been reported for CSCC[C@H](NC=O)C(=O)N[C@@H](CC(C)C)C(=O)N[C@@H](Cc1ccccc1)C(=O)O ?
71%

I am curious: what Population Mitotic Cells (%) value has been reported for Cc1cc(O)c(-c2ccc([C@@H](C)CN(C)C)cc2)c2c1[nH]c(=O)c1sccc12 ?
88.89% [middle of 4 runs]

---

# System: U2OS
# ASSAY_NOTES: Multiplex assay against U2OS
# Type: toxicity, cell-based
# REPORTED_CONDITIONS: human, 12 h, 10 µM, compound concentration 10 uM
MEASURED_ENDPOINT: Population Mitotic Cells (%)
State the answer as a number, implicitly in %.

Sample records with Population Mitotic Cells (%):
I am curious: what Population Mitotic Cells (%) value has been reported for CSCC[C@H](NC=O)C(=O)N[C@@H](CC(C)C)C(=O)N[C@@H](Cc1ccccc1)C(=O)O ?
30

I am curious: what Population Mitotic Cells (%) value has been reported for CCCCC(=O)N(Cc1ccc(-c2ccccc2-c2nnn[nH]2)cc1)[C@H](C(=O)O)C(C)C ?
25

I am curious: what Population Mitotic Cells (%) value has been reported for O=c1cccc2n1C[C@@H]1CNC[C@H]2C1 ?
50

# evaluate next
I am curious: what Population Mitotic Cells (%) value has been reported for N[C@](CC1c2ccccc2Oc2ccccc21)(C(=O)O)[C@H]1C[C@@H]1C(=O)O ?
16

---

# Test system: HEK-293T
# ASSAY_NOTES: Multiplex assay against HEK293T
# Type: toxicity, cell-based
# REPORTED_CONDITIONS: human, 12 h, 1 µM, compound concentration 1 uM
MEASURED_ENDPOINT: Population Fragmented Nuclei (%)
State the answer as a number, implicitly in %.

Sample records with Population Fragmented Nuclei (%):
Entry O=C(NCCNCC(O)COc1ccc(O)cc1)N1CCOCC1.O=C(NCCNCC(O)COc1ccc(O)cc1)N1CCOCC1.O=C(O)/C=C/C(=O)O (centres undefined) [XAMOTEROL FUMARATE] , system HEK-293T: what Population Fragmented Nuclei (%) was measured?
5

Entry CN(C)CCCc1cc(C(=O)Nc2ccc(-c3ccncc3)cc2)ccc1O.Cl.Cl , system HEK-293T: what Population Fragmented Nuclei (%) was measured?
5

New cases:
Entry CN[C@@H](C)C(=O)N[C@H](C(=O)N1CCC[C@H]1C(=O)Nc1snnc1-c1ccccc1)C1CCCCC1 , system HEK-293T: what Population Fragmented Nuclei (%) was measured?
5

Entry O=C(O)Cc1ccccc1Nc1c(Cl)cccc1Cl , system HEK-293T: what Population Fragmented Nuclei (%) was measured?
7

---

# Test system: U2OS
# ASSAY_NOTES: Multiplex assay against U2OS
# Type: toxicity, cell-based
# REPORTED_CONDITIONS: human, 48 h, 10 µM, compound concentration 10 uM
Reported Population Normal (%) values follow for various molecules
State the answer as a number, implicitly in %.

Sample records with Population Normal (%):
I am curious: what Population Normal (%) value has been reported for CCc1nn2c(C)cc(C)nc2c1Cc1ccc(-c2nnc(C3CCNCC3)o2)cc1 ?
97

I am curious: what Population Normal (%) value has been reported for N#Cc1cc(F)cc(-c2nc(-c3ccc(F)cn3)no2)c1 ?
98

I am curious: what Population Normal (%) value has been reported for CC/C(=C(\c1ccc(O)cc1)c1ccc(OCCN(C)C)cc1)c1ccccc1 ?
100

I am curious: what Population Normal (%) value has been reported for COc1cc2ncnc(Nc3ccc(Oc4ccccc4)cc3C)c2cc1OC.Cl ?
100

I am curious: what Population Normal (%) value has been reported for Cn1cnc(-c2cnc(O[C@H]3CCN(C(=O)Cc4ccc(OC(F)(F)F)cc4)C[C@H]3F)c(C(N)=O)c2)c1 ?
100

New cases:
I am curious: what Population Normal (%) value has been reported for CC(C)c1ccc(/C=N/NC(=O)c2ccc(O)cc2)cc1 ?
100

I am curious: what Population Normal (%) value has been reported for CC[C@H](Nc1ncnc2[nH]cnc12)c1nc2cccc(F)c2c(=O)n1-c1ccccc1 ?
100
